Cited source: ChEMBL document CHEMBL1135103

testedOn: D(3) dopamine receptor (Homo sapiens)
Sequence (P35462 whole entry): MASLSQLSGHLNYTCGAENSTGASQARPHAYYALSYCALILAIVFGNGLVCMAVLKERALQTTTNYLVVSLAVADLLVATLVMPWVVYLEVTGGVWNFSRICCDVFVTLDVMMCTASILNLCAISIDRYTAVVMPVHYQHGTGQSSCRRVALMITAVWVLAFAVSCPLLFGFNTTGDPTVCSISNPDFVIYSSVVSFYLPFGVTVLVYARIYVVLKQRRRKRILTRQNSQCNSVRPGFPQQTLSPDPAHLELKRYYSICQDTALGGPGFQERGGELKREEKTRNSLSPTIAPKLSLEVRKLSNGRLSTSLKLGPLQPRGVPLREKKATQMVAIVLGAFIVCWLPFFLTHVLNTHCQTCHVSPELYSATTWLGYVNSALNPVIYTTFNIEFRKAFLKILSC
Measured pKi of individual entries
Note: pKi values are expressed as the negative base-10 logarithm of concentration in M.

Answered cases to consult:
So what does the record say about pKi for `Fc1ccc(-c2cc(CCCCN3CCN(C(c4ccccc4)c4ccccc4)CC3)on2)cc1` ? 7.52

So what does the record say about pKi for `O=[N+]([O-])c1cccc(-c2cc(CCCCN3CCN(C(c4ccccc4)c4ccccc4)CC3)on2)c1` ? 7.72

So what does the record say about pKi for `COc1ccccc1N1CCN(CCCCc2cc(-c3cccs3)no2)CC1` ? 8.33

So what does the record say about pKi for `COc1ccccc1N1CCN(CCCCc2cc(/C=C/c3ccccc3)no2)CC1` ? 7.82

Further cases:
So what does the record say about pKi for `COc1ccc(-c2cc(CCCCN3CCN(c4ccccc4OC)CC3)on2)cc1OC` ? 8.28

---

Reported Ki for target or system D(2) dopamine receptor (Homo sapiens, UniProt P14416), by entry.
Show the value, then the unit it is measured in.

Answered cases to consult:
Kindly state the measured Ki obtained for `c1ccc(N2CCN(CCCCc3cc(-c4cccs4)no3)CC2)cc1` with D(2) dopamine receptor (Homo sapiens, UniProt P14416). 4140 nM

Kindly state the measured Ki obtained for `COc1ccc(-c2cc(CCCCN3CCN(c4ccccc4OC)CC3)on2)c(OC)c1` with D(2) dopamine receptor (Homo sapiens, UniProt P14416). 440 nM

Kindly state the measured Ki obtained for `Fc1ccc(-c2cc(CCCCN3CCN(C(c4ccccc4)c4ccccc4)CC3)on2)cc1` with D(2) dopamine receptor (Homo sapiens, UniProt P14416). 1460 nM

Kindly state the measured Ki obtained for `Cc1ccccc1N1CCN(CCCCc2cc(-c3cccs3)no2)CC1` with D(2) dopamine receptor (Homo sapiens, UniProt P14416). 2110 nM

Further cases:
Kindly state the measured Ki obtained for `Fc1ccc(-c2cc(CCCCN3CCN(c4ccccc4)CC3)on2)cc1` with D(2) dopamine receptor (Homo sapiens, UniProt P14416). 2530 nM

---

Reported Ki for target or system D(3) dopamine receptor (Homo sapiens, UniProt P35462), by entry.
Give the quantity in µM, number only.

Answered cases to consult:
Kindly state the measured Ki obtained for `CCOc1ccccc1N1CCN(CCCCc2cc(-c3ccc(OC)c(OC)c3)no2)CC1` with D(3) dopamine receptor (Homo sapiens, UniProt P35462). 0.0026

Kindly state the measured Ki obtained for `CCOc1ccccc1N1CCN(CCCCc2cc(-c3cccc([N+](=O)[O-])c3)no2)CC1` with D(3) dopamine receptor (Homo sapiens, UniProt P35462). 0.019

Kindly state the measured Ki obtained for `COc1ccc(-c2cc(CCCCN3CCN(c4ccccc4C)CC3)on2)cc1OC` with D(3) dopamine receptor (Homo sapiens, UniProt P35462). 0.038

Kindly state the measured Ki obtained for `COc1ccc(-c2cc(CCCCN3CCN(C(c4ccccc4)c4ccccc4)CC3)on2)c(OC)c1` with D(3) dopamine receptor (Homo sapiens, UniProt P35462). 0.016

Kindly state the measured Ki obtained for `c1ccc(-c2cc(CCCCN3CCN(C(c4ccccc4)c4ccccc4)CC3)on2)cc1` with D(3) dopamine receptor (Homo sapiens, UniProt P35462). 0.015

Further cases:
Kindly state the measured Ki obtained for `CCOc1ccccc1N1CCN(CCCCc2cc(-c3cccs3)no2)CC1` with D(3) dopamine receptor (Homo sapiens, UniProt P35462). 0.0039
